Measured microsomal CLint at 1 μM accompanies every entry in the list below.
Test: Liver microsomes stability with NADPH
Type: in vitro ADME, mouse
Details: ICR/CD-1, liver microsomes, pH 7.4; mouse, NADPH, 1 μM; read-out: Microsomes Cl int,app
Write the value in µL/min/mg as a bare number.

{"columns": ["Molecule", "Unit info", "microsomal CLint at 1 μM"],
 "data": [
  ["COCCOCCn1c2ccccc2c2cc(/C=C/c3cc[n+](CCO)c4ccccc34)ccc21 [SLOH]", "µL/min/mg", 30]
]}

Now let's try a different one.
Would you mind telling me what microsomal CLint at 1 μM value was observed for COCCOCCn1c2ccccc2c2cc(/C=C/c3cc[n+](C)c4ccccc34)ccc21.[I-] [SLM] ?
30

----------
Experiment: in vitro
Conditions: human, Caco-2
Property measured: efflux ratio at 1 μM
Lab note: write the figure by itself, no unit.

{"columns": ["Molecule", "efflux ratio at 1 μM"],
 "data": [
  ["COCCOCCn1c2ccccc2c2cc(/C=C/c3cc[n+](CCO)c4ccccc34)ccc21 [SLOH]", 9]
]}

Now let's try a different one.
Would you mind telling me what efflux ratio at 1 μM value was observed for COCCOCCn1c2ccccc2c2cc(/C=C/c3cc[n+](C)c4ccccc34)ccc21.[I-] [SLM] ?
34

----------
Measured Kp accompanies every entry in the list below.
Test: Systemic clearance and brain distribution in WT and 3 × Tg-AD mice (8 months)
Type: in vivo, mouse
Settings: B6129SF2/J (wild-type), mouse, brain interstitial fluid (unbound) versus plasma (unbound), iv, 1 mg/kg, WT mice 8 months, 1 mg/kg i.v.; read-out: K puu,brain
Lab note: write the figure by itself, no unit.

{"columns": ["Entry smiles", "Property measured", "Experimental result"],
 "data": [
  ["COCCOCCn1c2ccccc2c2cc(/C=C/c3cc[n+](CCO)c4ccccc34)ccc21", "Kp", 0.98]
]}

Now let's try a different one.
Would you mind telling me what Kp value was observed for COCCOCCn1c2ccccc2c2cc(/C=C/c3cc[n+](C)c4ccccc34)ccc21.[I-] ?
2.5

----------
Assay: Systemic clearance and brain distribution in WT and 3 × Tg-AD mice (8 months)
Assay type: in vivo, mouse
Conditions: 3×Tg-AD (B6;129-Psen1tm1Mpm Tg(APPSwe,tauP301L)1Lfa/Mmjax), mouse, plasma, iv; AD mice 8 months, 1 mg/kg i.v.; read-out: Cl p (converted)
Measured clearance accompanies every entry in the list below.
Write the value in mL/min/kg as a bare number.

{"columns": ["Entry smiles", "clearance [mL/min/kg]"],
 "data": [
  ["COCCOCCn1c2ccccc2c2cc(/C=C/c3cc[n+](CCO)c4ccccc34)ccc21", 10]
]}

Now let's try a different one.
Would you mind telling me what clearance value was observed for COCCOCCn1c2ccccc2c2cc(/C=C/c3cc[n+](C)c4ccccc34)ccc21.[I-] ?
13.2

----------
Measured clearance accompanies every entry in the list below.
Assay: Systemic clearance and brain distribution in WT and 3 × Tg-AD mice (8 months)
Format: in vivo, mouse
Settings: B6129SF2/J (wild-type), mouse, plasma, iv; WT mice 8 months, 1 mg/kg i.v.; read-out: Cl p (converted)
Write the value in mL/min/kg as a bare number.

Would you mind telling me what clearance value was observed for COCCOCCn1c2ccccc2c2cc(/C=C/c3cc[n+](CCO)c4ccccc34)ccc21 ?
7.5

Would you mind telling me what clearance value was observed for COCCOCCn1c2ccccc2c2cc(/C=C/c3cc[n+](C)c4ccccc34)ccc21.[I-] ?
11.3

Measured values drawn from paper PMC5703966 for this set.
